Assayed target: T1, 4H3112-bN
T1 chain: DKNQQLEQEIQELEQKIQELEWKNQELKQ
Assay notes: two-hybrid library CCNG1;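 note: natural log of median RNA to DNA barcode read ratio; higher means stronger binding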
Metric name: interaction score

Below: 3 binders and their reported interaction score.
Binder: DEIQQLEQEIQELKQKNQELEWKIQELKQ [4H118-bN]
Metric name: interaction score
Reported result: -0.413

Binder: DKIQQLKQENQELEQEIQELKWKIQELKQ [4H2702-bN]
Metric name: interaction score
Reported result: -0.298

Binder: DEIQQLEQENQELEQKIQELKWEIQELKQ [4H170-bN]
Metric name: interaction score
Reported result: 0.507

I: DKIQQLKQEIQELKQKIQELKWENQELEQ [4H2667-bN]
II: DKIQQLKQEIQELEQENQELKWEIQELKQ [4H2586-bN]
III: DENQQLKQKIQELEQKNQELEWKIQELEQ [4H1845-bN]
IV: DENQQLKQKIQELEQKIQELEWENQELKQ [4H1828-bN]
[Q] With regard to interaction score, arrange the entries in ascending order, please. Please list the labels according to the requested order.
[A] II, III, IV, I
(II: -1.32, III: -0.777, IV: 0.443, I: 1.72)
